test: in vitro; format: in vitro ADME; set-up: dose or concentration left out as unconfirmed; details: simulated intestinal fluid (SIF) with pancreatin, pH 6.8, 37° C., § matrix is 100 fold dilution of standard SIF concentration, read-out: SIF t½ (converted)
Bridge positions count the residues as written; N and C are the ends. Square brackets hold non-standard residues; d marks the D form. Peptide text beside a SMILES is read from it. Trp(7-Me) = Cc1cccc2c(C[C@H](N)C(=O)O)c[nH]c12; 2Nal = N[C@@H](Cc1ccc2ccccc2c1)C(=O)O; Pen = CC(C)(S)[C@H](N)C(=O)O; αMeK = C[C@](N)(CCCCN)C(=O)O
MEASURED_PARAMETER: half-life
# number then unit; no other words

(Q) Tell me measured half-life for CC(=O)NCCCC[C@@H]1NC(=O)[C@H](Cc2c[nH]c3c(C)cccc23)NC(=O)[C@H]([C@@H](C)O)NC(=O)[C@H](CC(N)=O)NC(=O)[C@@H](NC(C)=O)C(C)(C)SSC(C)(C)[C@@H](C(=O)N[C@@H](Cc2c[nH]cn2)C(=O)N[C@@H](Cc2ccc3ccccc3c2)C(=O)N[C@@](C)(CCCCN)C(=O)N[C@@H](CCCCNC(C)=O)C(=O)N[C@@H](CC(N)=O)C(=O)N[C@H](CC(C)C)C(N)=O)NC1=O [compound 290] (Ac-[Pen]NT[Trp(7-Me)]K(Ac)[Pen]H[2Nal][αMeK]K(Ac)N[dL]-NH2; disulfide 1-6) please.
(A) 16 h
